# credit: patent US5324730A

The following compounds are listed with their measured Tmax, oral administration values.
assay.summary: Oral absorbability: plasma concentration of Compound 1a (B^1 = 9-guanyl) in mice after oral or intravenous administration (Method 4)
Assay type: in vivo
stated.conditions: Compound 1a (B^1 = 9-guanyl) in plasma, male CDF1 mice, 75 μM/kg oral

Cc1ccc(OP(=O)(O)OC[C@H]2C[C@@H](n3cnc4c(=O)[nH]c(N)nc43)[C@@H]2CO)cc1 :: 30 '

Query block: Given the entry Nc1nc2c(ncn2[C@@H]2C[C@H](COP(=O)(O)Oc3cccc(Cl)c3)[C@H]2CO)c(=O)[nH]1 , report its measured Tmax, oral administration.
Result block: 30 '

Query block: And for COc1ccc(OP(=O)(O)OC[C@H]2C[C@@H](n3cnc4c(=O)[nH]c(N)nc43)[C@@H]2CO)cc1 ?
Result block: 10 '

Query block: // next record Nc1nc2c(ncn2[C@@H]2C[C@H](COP(=O)(O)Oc3ccccc3Cl)[C@H]2CO)c(=O)[nH]1
Result block: 30 '

Query block: Also check Nc1nc2c(ncn2[C@@H]2C[C@H](CO)[C@H]2COP(=O)(O)Oc2ccccc2)c(=O)[nH]1
Result block: 30 '

Query block: Consider next the compound Nc1nc2c(ncn2[C@@H]2C[C@H](COP(=O)(O)Oc3ccc(Cl)cc3)[C@H]2CO)c(=O)[nH]1 in the same way.
Result block: 10 '

Query block: Entry to check: Nc1nc2c(ncn2[C@@H]2C[C@H](COP(=O)(O)Oc3ccccc3)[C@H]2CO)c(=O)[nH]1
Result block: 30 '

Query block: Query Nc1nc2c(ncn2[C@@H]2C[C@H](COP(=O)(O)Oc3ccc(F)cc3)[C@H]2CO)c(=O)[nH]1 next
Result block: 30 '

* * *

assay.summary: Oral absorbability: plasma concentration of Compound 1a (B^1 = 9-guanyl) in mice after oral or intravenous administration (Method 4)
Type: in vivo
stated.conditions: Compound 1a (B^1 = 9-guanyl) in plasma, male CDF1 mice, 75 μM/kg intravenous
Note to self: AUC, intravenous injection under 4000 ng·h/mL means Yes, ties and anything higher get No.

Some solved entries appear below for comparison.
COc1ccc(OP(=O)(O)OC[C@H]2C[C@@H](n3cnc4c(=O)[nH]c(N)nc43)[C@@H]2CO)cc1 :: No
Nc1nc2c(ncn2[C@@H]2C[C@H](COP(=O)(O)Oc3ccccc3)[C@H]2CO)c(=O)[nH]1 :: No
Nc1nc2c(ncn2[C@@H]2C[C@H](COP(=O)(O)Oc3ccc(F)cc3)[C@H]2CO)c(=O)[nH]1 :: No
Nc1nc2c(ncn2[C@@H]2C[C@H](COP(=O)(O)Oc3ccc(Cl)cc3)[C@H]2CO)c(=O)[nH]1 :: Yes
Nc1nc2c(ncn2[C@@H]2C[C@H](COP(=O)(O)Oc3cccc(Cl)c3)[C@H]2CO)c(=O)[nH]1 :: Yes
Nc1nc2c(ncn2[C@@H]2C[C@H](CO)[C@H]2COP(=O)(O)Oc2ccccc2)c(=O)[nH]1 :: Yes

We next turn to a different compound, shown below.
Query block: Criterion: AUC, intravenous injection strictly below 4000 ng·h/mL. Is it met by Nc1nc2c(ncn2[C@@H]2C[C@H](COP(=O)(O)Oc3ccccc3Cl)[C@H]2CO)c(=O)[nH]1 ?
Result block: Yes
